measured.property: melting point

Examples with answers:
compound="Cc1ccc(F)cc1C1CC(=O)c2c(C)ccnc2C1 (stereo not drawn)" observed_value="113 to 114 °C"
compound="CC(Cc1c[nH]c2ccccc12)(NC(=O)OC1C2CC3CC(C2)CC1C3)C(=O)NC1(CC(=O)O)CCCCC1 (stereo not drawn)" observed_value="174 °C"
compound="O=C(O)CCSC1c2ccccc2COc2ccc(OCc3ccc4ccc(OC(F)F)cc4n3)cc21 (stereo not drawn)" observed_value="180 to 184 °C"
compound="CC(=O)N(C)C1CCC(O)(c2ccc(Cl)c(Cl)c2)c2ccccc21 (stereo not drawn)" observed_value="146 to 148 °C"
compound=NC(=O)c1c(C(=O)O)cnn1-c1cccc(Cl)c1Cl observed_value="228 to 230 °C"

We next turn to a different compound, shown below.
Ask | Item under review: CCOC(=O)CCCCOc1ccc([N+](=O)[O-])c(/C=C2\CC(=O)NC2=O)c1 . Reported melting point?
Reply | 112 °C

====

Listed below: melting point values for each entry.

# count of solved cases: 6
compound=Cc1cc(F)c([N+](=O)[O-])cc1N observed_value="178 °C"
compound=COc1cc(C)c(C(=O)c2c(OC)cccc2C(F)(F)F)c(OC)c1OC observed_value="69 to 70 °C"
compound=C#Cc1ccc2c(c1)Cc1cc(C#C)ccc1-2 observed_value="125 °C"
compound=CN1CC=C(c2cn(C)c3ccc(NS(C)(=O)=O)cc23)CC1 observed_value="198 to 202 °C"
compound=CN1CCN(C2=Nc3ccc(Cl)cc3Cn3cccc32)CC1 observed_value="186 to 188 °C"
compound="Cc1c(Br)c2c(c(C)c1NC(=O)OC(C)(C)C)CC(C)O2 (configuration not stated)" observed_value="115 to 116 °C"

Note: attention shifts to another entry.
Ask | Please look up its melting point: Clc1ccc(-c2nnc(Br)cc2Br)cc1
Reply | 160 to 162 °C

====

measured.property: melting point

compound=CSCCC(=N)Nc1cn(-c2cccnc2)nc1Cl observed_value="137 °C"
compound=O=C(O)c1ccc(O)c(C(=O)C=Cc2ccc(OCc3ccc4ccccc4n3)cc2)c1 observed_value="258 to 260 °C"
compound=COC=C(C(=O)OC)N(C)c1nc(-c2ccc(Cl)cc2)cs1 observed_value="104 to 105 °C"

Ask | Using the record for COc1ccc2cc(C=CC(C)=O)ccc2c1 , report its melting point.
Reply | 114 to 116 °C

Ask | Item under review: CCOC(=O)C(CCC(=O)c1ccc(F)cc1)(NC(C)=O)C(=O)OCC . Reported melting point?
Reply | 73 °C

====

measured.property: melting point (°C)

molecule="CC(O)c1ccc(C(C)(C)C)cc1 (single isomer, unassigned; (+))" measured_property="melting point" units_text=°C observed_value=85
molecule="CC(Oc1cccc(Oc2c(Cl)cc(C(F)(F)F)cc2Cl)c1)C(=O)O (centres undefined)" measured_property="melting point" units_text=°C observed_value=120

====

melting point listing for selected molecules.

The examples below pair each entry with its known result.
molecule=CCN1CCC(C(=O)NO)(S(=O)(=O)c2ccc(Oc3ccc(Cl)cc3)cc2)CC1 measured_property="melting point" observed_value="158 °C"
molecule=COc1cc(OCc2ccccn2)ccc1/C=C/c1cc(/C=C/c2ccc3ccn(C(C)=O)c3c2)n[nH]1 measured_property="melting point" observed_value="182 to 187 °C"

Ask | I am curious: what melting point value has been reported for O=C(O)C(=O)N1CCC(=Cc2ccccc2)CC1 ?
Reply | 125 °C

Ask | What value of melting point has been reported for the following molecule? CC(C)c1nn(-c2ccc(C(F)(F)F)cn2)cc1CCCCO
Reply | 67 to 68 °C

Ask | Looking for the measured melting point of O=C1NCc2cc(C3CC3)sc21 , can you help?
Reply | 109 to 110 °C

====

Items are presented alongside their recorded melting point.

Answered cases to consult:
compound=CCOc1ccc(S(=O)(=O)Nc2cccnc2Nc2ccccc2)cc1 observed_value="161 to 162 °C"
compound=Oc1ccc(-c2cc3c(Oc4ccc(Cl)cc4)cncc3s2)cc1 observed_value="213 to 215 °C"

Ask | What does the data say about its melting point? Entry: CCCCOCCOC(=O)C1=C(C)NN=C(CC)C1c1cccc([N+](=O)[O-])c1 (stereo not drawn)
Reply | 122 °C

====

Each entry below carries its recorded melting point.

These recorded examples may help you get a feel for the data.
compound=Clc1cccc(CCC2(Cn3ccnc3)SCCS2)c1 observed_value="224 to 227 °C"
compound=Cc1sc(-c2ccccc2)nc1COc1ccc(CCl)cc1 observed_value="100 to 101 °C"
compound=CS(=O)(=O)Oc1ccc(CCOc2ccc(-c3ncccc3C(=O)O)cc2C#N)cc1 observed_value="85 to 86 °C"
compound="CCOC(=O)Cc1cc(OC)c2c(c1)C1(O)C(=O)c3ccccc3C1(O)O2 (stereo unspecified)" observed_value="133 to 136 °C"
compound=O=C1C[C@H](NC(=O)[C@H]2CCCN2C(=O)c2nc(CCCc3ccc(O)cc3)c[nH]2)[C@@H](OCc2ccccc2)O1 observed_value="86 to 90 °C"

Could you now look at the following compound, please?
Ask | Please look up its melting point: CCC1NCCc2ccc(NC(=N)c3cccs3)cc21 (stereo unspecified)
Reply | 142 to 144 °C

====

Here the recorded melting point is given for each entry.

Some solved entries appear below for comparison.
molecule="Fc1ccc(F)c(C(Sc2ccc(Cl)cc2)c2ccc(C3OCCO3)cn2)c1 (stereo not given)" measured_property="melting point" observed_value="70 to 73 °C"
molecule=CC(C)(C)Nc1nccc(C#C[Si](C)(C)C)n1 measured_property="melting point" observed_value="71 to 73 °C"
molecule="CCOCCC(Cc1ccc(NC(=O)NC(=O)c2ccc(C(N)=S)cc2)cc1)C(=O)OC(C)(C)C (stereo not given)" measured_property="melting point" observed_value="199 to 201 °C"
molecule="CC(NC(=O)Cc1cc(F)cc(F)c1)C(=O)NC1C(=O)NCc2cc(F)ccc21 (stereo not given)" measured_property="melting point" observed_value="195 to 200 °C"

Ask | Looking for the measured melting point of O=C(O)CNC(=O)Nc1cccc([N+](=O)[O-])c1 , can you help?
Reply | 217 to 218 °C

====

Recorded melting point values for a group of compounds are listed next.

Known melting point results, listed for orientation:
compound=CNC(=O)c1cccc(F)c1Nc1nc(Nc2ccc3c(c2)CCCC(=O)N3CCOC)ncc1Br observed_value="191 to 193 °C"
compound=CN=C(NS(=O)(=O)c1ccc(Cl)c(Cl)c1)SC observed_value="158 to 159 °C"
compound="COc1ccc(CCNCC(O)CO)cc1OC (stereo unspecified)" observed_value="80 to 82 °C"
compound="CC1CC(=O)NN=C1c1ccc(-n2ccc(CN(C)C)c2)cc1 (stereo unspecified)" observed_value="167 to 168 °C"
compound=Oc1nn(-c2ccccc2)nc1Cl observed_value="135 to 140 °C"

Ask | For the compound shown here, COc1ccc2c(c1)C(=O)CCC21CCC(=O)NC1=O (stereo unspecified) , give the reported melting point.
Reply | 214 to 215 °C

Ask | What measured melting point goes with CC(=O)OC1COC(N=[N+]=[N-])C(OC(C)=O)C1OC(C)=O (stereo unspecified) ?
Reply | 76 °C

Ask | For CCCCCCOC(=O)C(O)C1OC(n2cnc3c(N)ncnc32)C(O)C1O (stereo unspecified) , what is its reported melting point?
Reply | 145 to 147 °C

Ask | Could you tell me which melting point is on file for Cc1ccn2cc(CC(=O)N3CCN(c4ccc5[nH]c(=O)ccc5c4)CC3)nc2c1 ?
Reply | > 250 °C

Ask | Look up melting point: O=C(CCC#Cc1ccccn1)Nc1ccccc1F
Reply | 82 to 84 °C

Ask | What melting point value was documented for this compound, O=S=c1cc(-c2ccc(O)cc2)ss1 ?
Reply | 118 to 124 °C

====

Some compounds, each annotated with its measured melting point.

A selection of reference data follows.
compound=CCCC(CCC)NC(=O)Nc1ccc(Cl)cc1 observed_value="135 to 136 °C"
compound=O=C1NC(=C2CCCCC2)Sc2ccccc21 observed_value="146 to 147 °C"
compound=COC(=O)c1cn(C(c2ccccc2)(c2ccccc2)c2ccccc2)c(I)n1 observed_value="192 to 194 °C"
compound=CCOC(=O)/C(=N/OCc1ccccc1)c1ccc(OCCOc2ccc3ccccc3c2)s1 observed_value="111 to 112 °C"
compound=COc1cc(C(=O)Cc2ccccc2)cc(Cl)c1Cl observed_value="126 to 129 °C"

Ask | # get_value(readout='melting point', item= CCOC(=O)c1cc(C)cc(-c2ccc(N(C)C)cc2)n1 )
Reply | 143 to 144 °C

Ask | Fill blank: measured melting point of the compound Brc1ccc2c(c1)CC(Cc1ccccc1)O2 (configuration not stated) is ____.
Reply | 70 to 72 °C

Ask | Returns the measured melting point for the input compound. Input: CCc1c(N2CCC(N)CC2)c(F)cc2c(=O)c(C(=O)O)cn(C3CC3)c12
Reply | 248 to 249 °C

Ask | I have this compound here, CCOc1cc(CCC2OC(=O)NC2=O)ccc1O (configuration not stated) , and I need its recorded melting point.
Reply | 154 to 155 °C

Ask | Name the reported melting point value associated with the compound CCON(c1ccc([N+](=O)[O-])cc1Cl)S(=O)(=O)c1ccc(C)cc1
Reply | 134 to 135 °C

Ask | So what's the measured melting point for this one? CC(=O)N(C(C)=O)c1cc2c(Nc3ccc(Sc4nccn4C)c(Cl)c3)c(C#N)cnc2cc1N1CCC(N2CCCC2)CC1
Reply | 245 to 247 °C

Ask | I'd like to know its melting point. The compound in question is COc1ccc(-c2coc3ccc(-c4nnc(SCc5ccc(OC)c(C(F)(F)F)c5)o4)cc23)cc1
Reply | 162 to 163 °C

Where these numbers come from: a melting point compilation (Tetko et al.; mined from patent text by program, amines drawn as free bases though some values may be those of a salt)
